Experiment: Cmax in mouse plasma at 100 mg/kg, po measured up to 24 hrs by HPLC-LC-MS/MS analysis
Format: ADME, organism-based
Design: dose 100 mg/kg, route oral
valueKind: Cmax (ng/mL)
Provide only the numeric value, understood in ng/mL.

For the molecule CCCc1cc(C(O)(C(F)(F)F)C(F)(F)F)cc(CCC)c1OCCCCN1C(=O)NC(C)(c2ccc(OC(C)C)cc2)C1=O (racemic) , what Cmax is on record?
406

----------
Assay: AUC in mouse plasma at 100 mg/kg, po measured up to 24 hrs by HPLC-LC-MS/MS analysis
Format: ADME, organism-based
Design: dose 100 mg/kg, time < 24 hr, route oral
valueKind: AUC at 24 h (ng·h/mL)
Provide only the numeric value, understood in ng·h/mL.

For the molecule CCCc1cc(C(O)(C(F)(F)F)C(F)(F)F)cc(CCC)c1OCCCCN1C(=O)NC(C)(c2ccc(OC(C)C)cc2)C1=O (racemic) , what AUC at 24 h is on record?
3420

----------
Attribute: Emax
Target: Oxysterols receptor LXR-beta (Homo sapiens) (UniProt P55055)
Sequence (P55055 whole entry, the tested form may be a part): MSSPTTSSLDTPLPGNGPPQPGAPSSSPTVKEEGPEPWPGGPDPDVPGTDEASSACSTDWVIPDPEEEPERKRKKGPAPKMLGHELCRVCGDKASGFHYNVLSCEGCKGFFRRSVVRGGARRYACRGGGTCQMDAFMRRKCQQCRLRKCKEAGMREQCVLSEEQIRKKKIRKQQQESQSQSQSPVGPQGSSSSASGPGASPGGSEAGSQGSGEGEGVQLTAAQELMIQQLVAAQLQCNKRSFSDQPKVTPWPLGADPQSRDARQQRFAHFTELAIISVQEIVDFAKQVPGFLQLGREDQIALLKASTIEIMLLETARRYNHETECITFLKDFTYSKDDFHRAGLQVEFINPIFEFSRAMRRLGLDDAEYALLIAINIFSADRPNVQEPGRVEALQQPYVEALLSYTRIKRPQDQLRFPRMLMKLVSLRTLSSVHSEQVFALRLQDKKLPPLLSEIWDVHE
Assay: Agonist activity at GAL4 fused LXRbeta-LBD (unknown origin) transfected in CHOK1 cells at 10 uM after 24 hrs by luciferase reporter gene assay in presence of T0901317
Assay type: cell-based
Conditions: CHO-K1
Provide only the numeric value, understood in %.

Sample records with Emax:
{"compound": "CCCc1cc(C(O)(C(F)(F)F)C(F)(F)F)ccc1Oc1ccc(C(=O)CN2C(=O)NC(C)(c3ccc(OC(C)C)cn3)C2=O)c(O)c1 (single isomer, unassigned; (-))", "unitSpec": "%", "Emax": 255}
{"compound": "CCCc1cc(C(O)(C(F)(F)F)C(F)(F)F)cc(CCC)c1OC/C=C/CN1C(=O)NC(C)(c2ccc(OC(C)C)cc2)C1=O (stereo unspecified)", "unitSpec": "%", "Emax": 182}
{"compound": "CCCc1cc(C(O)(C(F)(F)F)C(F)(F)F)ccc1Oc1ccc(C(=O)CN2C(=O)NC(C)(c3ccc(OC(C)C)cc3)C2=O)c(OC)c1 (stereo unspecified)", "unitSpec": "%", "Emax": 306}

For the compound CCCc1cc(C(O)(C(F)(F)F)C(F)(F)F)ccc1Oc1ccc(CCN2C(=O)NC(C)(c3ccc(OC(C)C)cc3)C2=O)cc1 (stereo unspecified) , what Emax is on record?
223

For the compound CCCc1cc(C(O)(C(F)(F)F)C(F)(F)F)ccc1Oc1ccc(CCN2C(=O)NC(C)(c3ccc(OC(C)C)cc3)C2=O)c(C)c1 (stereo unspecified) , what Emax is on record?
615

For the compound CCCc1cc(C(O)(C(F)(F)F)C(F)(F)F)ccc1Oc1ccc(C(=O)CN2C(=O)NC(C)(c3ccc(OC(C)C)cn3)C2=O)c(O)c1 (racemic) , what Emax is on record?
329

----------
Tested on: CHO-K1
Experiment: Selectivity ratio of EC50 for GAL4 fused LXRalpha (unknown origin) transfected in CHOK1 cells to EC50 for GAL4 fused LXRbeta-LBD (unknown origin) transfected in CHOK1 cells
Type: cell-based
Settings: Homo sapiens
valueKind: Ratio EC50
Answer with a bare number; do not write a unit.

Sample records with Ratio EC50:
{"molecule": "CCCc1cc(C(O)(C(F)(F)F)C(F)(F)F)cc(CCC)c1OC/C=C/CN1C(=O)NC(C)(c2ccc(OC(C)C)cc2)C1=O (configuration not stated)", "Ratio EC50": 1.54}
{"molecule": "CCCc1cc(C(O)(C(F)(F)F)C(F)(F)F)ccc1Oc1ccc(C(=O)CN2C(=O)NC(C)(c3ccc(OC(C)C)cc3)C2=O)c(OC)c1 (configuration not stated)", "Ratio EC50": 10.4}
{"molecule": "CCCc1cc(C(O)(C(F)(F)F)C(F)(F)F)ccc1Oc1ccc(C(=O)CN2C(=O)NC(C)(c3ccc(OC(C)C)cn3)C2=O)c(O)c1 (racemic)", "Ratio EC50": 5.69}
{"molecule": "CCCc1cc(C(O)(C(F)(F)F)C(F)(F)F)cc(CCC)c1OCC#CCN1C(=O)NC(C)(c2ccc(OC(C)C)cc2)C1=O (configuration not stated)", "Ratio EC50": 1.41}
{"molecule": "CCCc1cc(C(O)(C(F)(F)F)C(F)(F)F)ccc1Oc1ccc(CCN2C(=O)NC(C)(c3ccc(OC(C)C)cc3)C2=O)c(C)c1 (configuration not stated)", "Ratio EC50": 4.89}

For the molecule CCCc1cc(C(O)(C(F)(F)F)C(F)(F)F)ccc1Oc1ccc(C(=O)CN2C(=O)NC(C)(c3ccc(OC(C)C)cc3)C2=O)c(O)c1 (configuration not stated) , what Ratio EC50 is on record?
3.09

----------
Test: AUC in mouse plasma at 10 mg/kg, po measured up to 24 hrs by HPLC-LC-MS/MS analysis
Format: ADME, organism-based
Parameters: time < 24 hr, dose 10 mg/kg, route oral
valueKind: AUC at 24 h (ng·h/mL)
Provide only the numeric value, understood in ng·h/mL.

For the compound CCCc1cc(C(O)(C(F)(F)F)C(F)(F)F)ccc1Oc1ccc(C(=O)CN2C(=O)NC(C)(c3ccc(OC(C)C)cn3)C2=O)c(O)c1 (single isomer, unassigned; (-)) , what AUC at 24 h is on record?
3030

----------
Attribute: EC50
Biological target: Oxysterols receptor LXR-alpha (Homo sapiens, UniProt Q13133)
Sequence (Q13133 whole entry): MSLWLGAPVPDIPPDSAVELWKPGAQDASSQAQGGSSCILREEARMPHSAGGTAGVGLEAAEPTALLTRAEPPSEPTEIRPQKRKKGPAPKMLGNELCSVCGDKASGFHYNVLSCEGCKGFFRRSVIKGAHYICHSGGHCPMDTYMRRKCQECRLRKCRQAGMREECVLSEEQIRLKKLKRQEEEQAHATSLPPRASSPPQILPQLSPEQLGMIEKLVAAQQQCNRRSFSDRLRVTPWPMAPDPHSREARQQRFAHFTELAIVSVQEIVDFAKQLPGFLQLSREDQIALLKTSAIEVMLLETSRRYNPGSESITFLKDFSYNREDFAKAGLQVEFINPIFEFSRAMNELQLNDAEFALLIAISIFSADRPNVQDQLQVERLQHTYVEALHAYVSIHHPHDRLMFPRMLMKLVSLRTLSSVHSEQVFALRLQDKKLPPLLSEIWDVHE
Assay: Agonist activity at GAL4 fused LXRalpha (unknown origin) transfected in CHOK1 cells after 24 hrs by luciferase reporter gene assay
Provide only the numeric value, understood in nM.

{"compound": "CCCc1cc(C(O)(C(F)(F)F)C(F)(F)F)ccc1Oc1ccc(C(=O)CN2C(=O)NC(C)(c3ccc(OC(C)C)cn3)C2=O)c(O)c1 (racemic)", "EC50 (nM)": 330}
{"compound": "CCCc1cc(C(O)(C(F)(F)F)C(F)(F)F)ccc1Oc1ccc(C(=O)CN2C(=O)NC(C)(c3ccc(OC(C)C)cc3)C2=O)cc1 (centres undefined)", "EC50 (nM)": 360}
{"compound": "CCCc1cc(C(O)(C(F)(F)F)C(F)(F)F)ccc1Oc1ccc(CCN2C(=O)NC(C)(c3ccc(OC(C)C)cc3)C2=O)c(C)c1 (centres undefined)", "EC50 (nM)": 3140}

For the compound CCCc1cc(C(O)(C(F)(F)F)C(F)(F)F)ccc1Oc1ccc(C(=O)CN2C(=O)NC(C)(c3ccc(OC(C)C)cc3)C2=O)c(C)c1 (centres undefined) , what EC50 is on record?
400

----------
Molecular target: Oxysterols receptor LXR-alpha (Homo sapiens)
Sequence (Q13133 whole entry): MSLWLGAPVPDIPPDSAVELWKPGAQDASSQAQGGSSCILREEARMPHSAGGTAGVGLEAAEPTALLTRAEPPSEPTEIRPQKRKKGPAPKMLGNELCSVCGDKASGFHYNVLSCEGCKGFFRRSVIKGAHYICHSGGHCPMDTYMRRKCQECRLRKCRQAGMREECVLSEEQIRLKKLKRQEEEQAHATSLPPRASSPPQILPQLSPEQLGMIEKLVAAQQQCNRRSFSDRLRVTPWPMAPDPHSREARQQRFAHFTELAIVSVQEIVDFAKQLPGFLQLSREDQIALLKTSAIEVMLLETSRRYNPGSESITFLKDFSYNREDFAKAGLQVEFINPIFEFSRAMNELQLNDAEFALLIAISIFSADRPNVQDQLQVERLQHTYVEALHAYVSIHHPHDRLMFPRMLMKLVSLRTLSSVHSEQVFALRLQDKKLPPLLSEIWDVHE
Test: Agonist activity at GAL4 fused LXRalpha (unknown origin) transfected in CHOK1 cells after 24 hrs by luciferase reporter gene assay
valueKind: EC50 (nM)
Provide only the numeric value, understood in nM.

Sample records with EC50:
{"compound": "CCCc1cc(C(O)(C(F)(F)F)C(F)(F)F)cc(CCC)c1OCC#CCN1C(=O)NC(C)(c2ccc(OC(C)C)cc2)C1=O (configuration not stated)", "EC50 / nM": 860}
{"compound": "CCCc1cc(C(O)(C(F)(F)F)C(F)(F)F)ccc1Oc1ccc(C(=O)CN2C(=O)NC(C)(c3ccc(OC(C)C)cc3)C2=O)c(OC)c1 (configuration not stated)", "EC50 / nM": 3740}
{"compound": "CCCc1cc(C(O)(C(F)(F)F)C(F)(F)F)ccc1Oc1cccc(CN2C(=O)NC(C)(c3ccc(OC(C)C)cc3)C2=O)c1 (configuration not stated)", "EC50 / nM": 1960}
{"compound": "CCCc1cc(C(O)(C(F)(F)F)C(F)(F)F)ccc1Oc1ccc(C(=O)CN2C(=O)NC(C)(c3ccc(OC(C)C)cn3)C2=O)c(O)c1 (single isomer, unassigned; (-))", "EC50 / nM": 200}

For the compound CCCc1cc(C(O)(C(F)(F)F)C(F)(F)F)cc(CCC)c1OC/C=C/CN1C(=O)NC(C)(c2ccc(OC(C)C)cc2)C1=O (configuration not stated) , what EC50 is on record?
1230

For the compound CCCc1cc(C(O)(C(F)(F)F)C(F)(F)F)ccc1Oc1cccc(CCN2C(=O)NC(C)(c3ccc(OC(C)C)cc3)C2=O)c1 (configuration not stated) , what EC50 is on record?
2890

For the compound CCCc1cc(C(O)(C(F)(F)F)C(F)(F)F)ccc1Oc1ccc(C(=O)CN2C(=O)NC(C)(c3ccc(OC(C)C)cc3)C2=O)c(O)c1 (configuration not stated) , what EC50 is on record?
340
